Molecular target: BRD9-GFP (Homo sapiens)
Construct: CHYSEL (2A cis-acting hydrolase element) remnant after GFP; mCherry is split off as a separate protein (C); expressed in transfected cells; host or cells: HEK293A cells (Invitrogen R70507), lentiviral transduction with pLenti6-BRD9-GFP-CHYSEL-mCherry, blasticidin selection
Test: BRD9-GFP protein abundance flow cytometry assay in HEK293A cells
Format: cell-based
Settings: HEK293A-BRD9-GFP-CHYSEL-mCherry cells, 24 h at 37° C., 10-point 1:3 dilution; concentration at which 50% maximal degradation was observed
Protocol: Compounds of the invention were tested in the following cellular assays. […] BRD9-GFP protein abundance flow cytometry assay in HEK293A cells: Degradation of BRD9 was measured in HEK293A cells expressing BRD9-GFP and mCherry from a stably integrated second generation bicistronic BRD9-GFP-CHYSELmCherry construct. Reduction of the GFP signal measured by flow cytometry served as readout for BRD9 degradation after degrader treatment. […]
Endpoint label: DC50 (nM)
Answer in nM, number only, no unit symbol.

Some entries whose results are on file:
## Input Entry "CCCCn1cc(-c2cc(F)c(OC3CCN(CCC4CCN(C(=O)c5ccc(OC)c(N6CCC(=O)NC6=O)c5)CC4)CC3)c(F)c2)c2ccncc2c1=O" : reported DC50 = ?
## Output 9

## Input Data request, read-out DC50, for "COc1cc(-c2cn(C)c(=O)c3cnccc23)c(OC)cc1OC1CCN(CC2CCN(C(=O)c3ccc(OC)c(N4CCC(=O)NC4=O)c3)CC2)CC1"
## Output 14

Attention now turns to another entry.
## Input Which DC50 value is on record for "Cn1cc(-c2cc(F)c(CN3CC[C@@H](OC4CCN(CCn5cccc(CN6CCC(=O)NC6=O)c5=O)CC4)[C@H](F)C3)c(F)c2)c2ccncc2c1=O" ?
## Output 3

====

Molecular target: BRD9-GFP (Homo sapiens, UniProt Q9H8M2)
Construct: CHYSEL (2A cis-acting hydrolase element) remnant after GFP; mCherry is split off as a separate protein (C); expressed in transfected cells; host or cells: HEK293A cells (Invitrogen R70507), lentiviral transduction with pLenti6-BRD9-GFP-CHYSEL-mCherry, blasticidin selection
Sequence (Q9H8M2 1-597): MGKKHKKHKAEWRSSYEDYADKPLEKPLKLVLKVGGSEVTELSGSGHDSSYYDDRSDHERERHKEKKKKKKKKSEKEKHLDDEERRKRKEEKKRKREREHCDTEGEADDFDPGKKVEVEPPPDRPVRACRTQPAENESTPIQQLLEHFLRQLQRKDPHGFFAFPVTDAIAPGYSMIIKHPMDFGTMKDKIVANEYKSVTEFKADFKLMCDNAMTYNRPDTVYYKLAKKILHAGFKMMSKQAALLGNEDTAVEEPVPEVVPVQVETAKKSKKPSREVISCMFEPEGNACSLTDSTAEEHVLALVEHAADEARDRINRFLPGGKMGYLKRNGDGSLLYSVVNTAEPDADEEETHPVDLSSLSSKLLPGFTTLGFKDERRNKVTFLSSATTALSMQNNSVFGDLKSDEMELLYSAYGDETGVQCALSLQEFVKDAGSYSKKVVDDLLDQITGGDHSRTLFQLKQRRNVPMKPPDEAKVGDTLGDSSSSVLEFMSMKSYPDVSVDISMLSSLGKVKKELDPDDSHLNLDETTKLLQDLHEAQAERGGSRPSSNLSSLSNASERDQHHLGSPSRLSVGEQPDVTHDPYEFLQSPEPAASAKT
Assay: BRD9-GFP protein abundance flow cytometry assay in HEK293A cells
Assay type: cell-based
Conditions: HEK293A-BRD9-GFP-CHYSEL-mCherry cells, 24 h at 37° C., 10-point 1:3 dilution; concentration at which 50% maximal degradation was observed
Endpoint label: DC50 (nM)
Please respond with the number in nM and leave the unit unwritten.

## Input So what DC50 did CCCCn1cc(-c2cc(OC)c(CN3CCC(OC4CCN(C(=O)c5ccc(OC)c(N6CCC(=O)NC6=O)c5)CC4)CC3)cc2OC)c2ccncc2c1=O [Compound B3] get with BRD9-GFP (Homo sapiens, UniProt Q9H8M2)?
## Output 27

## Input Query DC50 on BRD9-GFP (Homo sapiens, UniProt Q9H8M2) for CCCCn1cc(-c2ccc(O[C@@H]3CCN(CC4CCN(C(=O)c5ccc(OC)c(N6CCC(=O)NC6=O)c5)CC4)C[C@H]3F)c(F)c2)c2ccncc2c1=O [Compound E29]
## Output 1

As a next step, examine the compound that follows.
## Input What reported DC50 corresponds to COc1cc(-c2cn(C)c(=O)c(C)c2C)c(OC)cc1CN1CCC(OC2CCN(C(=O)c3ccc(Cl)c(N4CCC(=O)NC4=O)c3)CC2)CC1 [Compound A18] on BRD9-GFP (Homo sapiens, UniProt Q9H8M2)?
## Output 15
